molecular target: rat galectin-5 (rGal-5) (Rattus norvegicus); construct: we used the full-length protein to obtain structural information on the N-terminal tail; made in house; experiment: Isothermal titration calorimetry (ITC) of ligand binding to recombinant rGal-5; details: (summarises Table 2), read-out: dissociation constant
Sequence (P47967 whole entry): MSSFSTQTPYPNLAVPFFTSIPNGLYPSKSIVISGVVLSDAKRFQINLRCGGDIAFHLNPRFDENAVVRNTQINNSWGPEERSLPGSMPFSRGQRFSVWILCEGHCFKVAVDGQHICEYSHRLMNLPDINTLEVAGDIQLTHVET
measurement.kind: Kd (µM)

(a) OC[C@H]1O[C@@H](O[C@H]2[C@H](O)[C@@H](O)C(O)O[C@@H]2CO)[C@H](O)[C@@H](O)[C@H]1O (mixture of isomers)
(b) CC(=O)N[C@H]1C(O)O[C@H](CO)[C@@H](O[C@@H]2O[C@H](CO)[C@H](O)[C@H](O)[C@H]2O)[C@@H]1O (some centres unmarked)
Dear colleague, could you let me know whether a or b has the lower recorded Kd? Thanks. Answer with the label corresponding to your selection.
b
(b: 30.5 µM, a: 136 µM)
